# Tested on: H520
# test: sunitinib treatment, viability of NSCLC cell line (IC50)
# Format: cell-based
# assay_context: Homo sapiens, NCI-H520; H520 cell line, sunitinib
endpoint: IC50

Input line: Report IC50 for `CCN(CC)CCNC(=O)c1c(C)[nH]c(/C=C2\C(=O)Nc3ccc(F)cc32)c1C` tested on H520.
Output line: 1000 to 3000 nM
